- Tested System: RNA demethylase ALKBH5 (Homo sapiens)
- Assay Details: Inhibition of ALKBH5 (66 to 292 residues) (unknown origin) extracted from Escherichia coli BL21 (DE3) cells using m6A ssDNA as substrate measured after 180 mins by fluorescence polarization assay
Assay Metric: IC50 (µM)
I only need the number, in µM, no unit after it.

Any idea what its IC50 is? The compound is `O=Cc1cc(S(=O)(=O)NC(=O)c2cc(C(=O)O)ccn2)c2ccccc2c1O`
0.28

###

- Tested System: UniProt Q6P6C2
- Assay Details: Binding affinity to ALKBH5 (66 to 292 residues) (unknown origin) extracted from Escherichia coli BL21 (DE3) cells assessed as dissociation constant incubated for 5 hrs by MST analysis
# Kd per record follows
Answer with the number, then the unit.

- Mol: "O=C(O)c1ccnc(C(=O)NS(=O)(=O)c2cccc3ccccc23)c1"
  Tested System: "UniProt Q6P6C2"
  Kd: "61.7 µM"

Any idea what its Kd is? The molecule is `O=Cc1cc(S(=O)(=O)NC(=O)c2cc(C(=O)O)ccn2)c2ccccc2c1O`
0.56 µM

###

- Tested System: RNA demethylase ALKBH5 (Homo sapiens, UniProt Q6P6C2)
- Sequence (Q6P6C2 whole entry, the tested form may be a part): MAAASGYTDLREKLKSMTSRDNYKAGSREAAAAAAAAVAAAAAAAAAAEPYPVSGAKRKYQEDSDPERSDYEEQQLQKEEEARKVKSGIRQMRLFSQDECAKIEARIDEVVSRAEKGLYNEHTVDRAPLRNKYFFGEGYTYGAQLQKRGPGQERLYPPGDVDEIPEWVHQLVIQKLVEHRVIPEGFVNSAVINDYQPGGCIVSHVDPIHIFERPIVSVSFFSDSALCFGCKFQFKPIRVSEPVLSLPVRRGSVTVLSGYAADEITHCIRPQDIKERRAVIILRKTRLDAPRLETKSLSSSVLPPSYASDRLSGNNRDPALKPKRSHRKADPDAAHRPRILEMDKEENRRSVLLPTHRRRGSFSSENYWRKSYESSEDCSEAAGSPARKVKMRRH
- Assay Details: Binding affinity to ALKBH5 (66 to 292 residues) (unknown origin) extracted from Escherichia coli BL21 (DE3) cells assessed as dissociation constant incubated for 4 hrs by MST analysis
Assay Metric: Kd (µM)
I only need the number, in µM, no unit after it.

- Mol: "O=Cc1cc(S(=O)(=O)NC(=O)c2cc(C(=O)O)ccn2)c2ccccc2c1O"
  Kd (µM): 0.65

Next, consider the following compound.
Under RNA demethylase ALKBH5 (Homo sapiens, UniProt Q6P6C2): Kd value of `O=C(O)c1ccnc(C(=O)NS(=O)(=O)c2cccc3ccccc23)c1` ?
42

###

- Tested System: UniProtKB Q6P6C2
- Assay Details: Inhibition of ALKBH5 (66 to 292 residues) (unknown origin) extracted from Escherichia coli BL21 (DE3) cells using m6A ssDNA as substrate measured after 1 hrs by fluorescence polarization assay
Assay Metric: pIC50
Entry type: numeric. Quantity: pIC50, the -log10 of concentration in molar units.

- Mol: "C=CC(=O)Nc1ccccc1S(=O)(=O)NC(=O)c1cc(C(=O)O)ccn1"
  pIC50: 4.67
- Mol: "O=Cc1cc(S(=O)(=O)NC(=O)c2cc(C(=O)O)ccn2)c2ccccc2c1O"
  pIC50: 6.32
- Mol: "O=C(O)c1ccnc(C(=O)NS(=O)(=O)c2ccccc2)c1"
  pIC50: 4.28
- Mol: "C=CC(=O)Nc1cccc(S(=O)(=O)NC(=O)c2cc(C(=O)O)ccn2)c1"
  pIC50: 5.27
- Mol: "CC(=O)c1cc(S(=O)(=O)NC(=O)c2cc(C(=O)O)ccn2)ccc1O"
  pIC50: 5.19
- Mol: "O=C(CCl)Nc1cccc(S(=O)(=O)NC(=O)c2cc(C(=O)O)ccn2)c1"
  pIC50: 4.83
- Mol: "CC(=O)c1cc(S(=O)(=O)NC(=O)c2cc(C(=O)O)ccn2)c2ccccc2c1O"
  pIC50: 5.24
- Mol: "O=C(CCl)Nc1ccccc1S(=O)(=O)NC(=O)c1cc(C(=O)O)ccn1"
  pIC50: 4.90

Any idea what its pIC50 is? The compound is `O=Cc1cc(S(=O)(=O)NC(=O)c2cc(C(=O)O)ccn2)ccc1O`
6.26

###

- Tested System: RNA demethylase ALKBH5 (Homo sapiens, UniProt Q6P6C2)
- Assay Details: Binding affinity to ALKBH5 (66 to 292 residues) (unknown origin) extracted from Escherichia coli BL21 (DE3) cells assessed as dissociation constant incubated for 3 hrs by MST analysis
Assay Metric: pKd
Entry type: numeric. Quantity: pKd, the -log10 of concentration in molar units.

- Mol: "O=C(O)c1ccnc(C(=O)NS(=O)(=O)c2cccc3ccccc23)c1"
  Tested System: "RNA demethylase ALKBH5 (Homo sapiens, UniProt Q6P6C2)"
  pKd: 4.19

Next, consider the following compound.
Any idea what its pKd is? The compound is `O=Cc1cc(S(=O)(=O)NC(=O)c2cc(C(=O)O)ccn2)c2ccccc2c1O`
5.99

###

- Tested System: RNA demethylase ALKBH5 (Homo sapiens, UniProt Q6P6C2)
- Assay Details: Inhibition of ALKBH5 (66 to 292 residues) (unknown origin) extracted from Escherichia coli BL21 (DE3) cells using m6A ssDNA as substrate measured after 20 mins by fluorescence polarization assay
Assay Metric: pIC50
Entry type: numeric. Quantity: pIC50, the -log10 of concentration in molar units.

Any idea what its pIC50 is? The molecule is `O=Cc1cc(S(=O)(=O)NC(=O)c2cc(C(=O)O)ccn2)c2ccccc2c1O`
6.11

###

- Tested System: RNA demethylase ALKBH5 (Homo sapiens)
- Assay Details: Binding affinity to ALKBH5 (66 to 292 residues) (unknown origin) extracted from Escherichia coli BL21 (DE3) cells assessed as dissociation constant incubated for 1.5 hrs by MST analysis
Assay Metric: Kd (µM)
I only need the number, in µM, no unit after it.

- Mol: "O=C(O)c1ccnc(C(=O)NS(=O)(=O)c2cccc3ccccc23)c1"
  Kd (µM): 52.2

Next, consider the following compound.
Any idea what its Kd is? The compound is `O=Cc1cc(S(=O)(=O)NC(=O)c2cc(C(=O)O)ccn2)c2ccccc2c1O`
1.14

###

- Tested System: UniProtKB Q6P6C2
- Assay Details: Binding affinity to ALKBH5 (66 to 292 residues) (unknown origin) extracted from Escherichia coli BL21 (DE3) cells assessed as dissociation constant by ITC analysis
Assay Metric: Kd

Any idea what its Kd is? The compound is `O=Cc1cc(S(=O)(=O)NC(=O)c2cc(C(=O)O)ccn2)c2ccccc2c1O`
2800 nM

###

- Tested System: RNA demethylase ALKBH5 (Homo sapiens, UniProt Q6P6C2)
- Assay Details: Inhibition of ALKBH5 (66 to 292 residues) (unknown origin) extracted from Escherichia coli BL21 (DE3) cells using m6A ssDNA as substrate measured after 6 hrs by fluorescence polarization assay
pIC50: −log10 of the molar value.
Each entry gets 0 (no) if its pIC50 stays under 5, and 1 (yes) if its pIC50 is 5 or above.

Sample answers from the record:
- Mol: "O=Cc1cc(S(=O)(=O)NC(=O)c2cc(C(=O)O)ccn2)c2ccccc2c1O"
  Tested System: "RNA demethylase ALKBH5 (Homo sapiens, UniProt Q6P6C2)"
  Category: "1 (yes)"
- Mol: "COc1ccccc1S(=O)(=O)NC(=O)c1cc(C(=O)O)ccn1"
  Tested System: "RNA demethylase ALKBH5 (Homo sapiens, UniProt Q6P6C2)"
  Category: "0 (no)"
- Mol: "CN(C(=O)c1cc(C(=O)O)ccn1)S(=O)(=O)c1ccccc1[N+](=O)[O-]"
  Tested System: "RNA demethylase ALKBH5 (Homo sapiens, UniProt Q6P6C2)"
  Category: "0 (no)"

Kindly determine if pIC50 recorded for `COC(=O)c1ccnc(C(=O)NS(=O)(=O)c2ccccc2[N+](=O)[O-])c1` is above or exactly 5.
0 (no)

Try this molecule too: `O=C(OCc1ccc(C(F)(F)F)cc1)c1ccc(-c2cc3ncc(C(=O)c4c(O)ccc([N+](=O)[O-])c4O)cn3n2)cc1`
1 (yes)

Try this molecule too: `O=C(O)c1ccnc(C(=O)NS(=O)(=O)c2ccccc2-c2ccccc2)c1`
0 (no)

###

- Tested System: RNA demethylase ALKBH5 (Homo sapiens)
- Assay Details: Inhibition of ALKBH5 (66 to 292 residues) (unknown origin) extracted from Escherichia coli BL21 (DE3) cells using m6A ssDNA as substrate measured after 240 mins by fluorescence polarization assay
Assay Metric: IC50 (nM)
I only need the number, in nM, no unit after it.

Any idea what its IC50 is? The compound is `O=Cc1cc(S(=O)(=O)NC(=O)c2cc(C(=O)O)ccn2)c2ccccc2c1O`
260

###

# IC50 per record follows
- Tested System: RNA demethylase ALKBH5 (Homo sapiens, UniProt Q6P6C2)
- Assay Details: Inhibition of ALKBH5 (66 to 292 residues) (unknown origin) extracted from Escherichia coli BL21 (DE3) cells using m6A ssDNA as substrate measured immediately by fluorescence polarization assay
I only need the number, in µM, no unit after it.

Previously resolved entries follow.
- Mol: "O=C(O)c1ccnc(C(=O)NS(=O)(=O)c2ccccc2)c1"
  IC50 (µM): 64.9
- Mol: "CC(=O)c1cc(S(=O)(=O)NC(=O)c2cc(C(=O)O)ccn2)c2ccccc2c1O"
  IC50 (µM): 8.56
- Mol: "O=C(CCl)Nc1ccccc1S(=O)(=O)NC(=O)c1cc(C(=O)O)ccn1"
  IC50 (µM): 18.4

Next, consider the following compound.
Under RNA demethylase ALKBH5 (Homo sapiens, UniProt Q6P6C2): IC50 value of `O=C(CCl)Nc1cccc(S(=O)(=O)NC(=O)c2cc(C(=O)O)ccn2)c1` ?
30.6

// provenance: ChEMBL document CHEMBL6153040
